System: K4 kissing-loop RNA reporter;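 further: bound reporter read as fluorescence of individual clusters on recovered sequencing chips by microscopy, with normalized cluster intensities fitted with a binding model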
Test: apparent KD of K4 kissing-loop reporter; higher = weaker reporter binding
Settings: Eterna round: R107; input ligand: theophylline 20 uM
property name: apparent KD of K4 kissing-loop reporter (nM)
Report the value in nM with no unit label.

For the sequence shown here, UAAUUGCAGUGAUGUUGCAAAUGUCCUGACUAGGAUAUCAGGAAACUGAGAAGGAGUCCCUUCUAUUGCAACAAGAAGGAGGAUA [KL-SSFMN-A14] , give the reported apparent KD of K4 kissing-loop reporter.
338

And what about the sequence UAUGGUCCAUCAAGAGUAGUGAUGUUAUAACGAGGACCGGUACGGCCGCCACUCGAGGCCGUAAUACUCGAUCGGAUGCUGAGUG [theeternabot_exclusion_KL_Trp_A_28] ?
794

Cool, now AACGGCCAGUCGGCCGCCACUCGAUGCAGUGAUGUUGCUAACUUUCUAAAAGAGUGAUGUUCAUGGAGGACCGGGACUAAUGUAA [#29 K4 Tryptophan B Exclusion]
382

----------
Answer each item with its documented apparent KD of MS2 coat protein.
System: MS2 coat protein
Assay: apparent KD of MS2 coat protein, switch OFF state (with FMN for OFF switches, without FMN for ON switches); designed switch direction (-1 OFF switch, 1 ON switch): -1; higher = weaker reporter binding
Conditions: FMN input: 0 or 200 uM; Eterna round: R93 (includes R88 designs)
Respond with the bare value in µM.

Which measured apparent KD of MS2 coat protein belongs to GGAAAACAUGAGGAUCACCCAUGUAAGGAUAUGCAAAAGGAUAUAGAAGGAAAAAAAAGCAGAAGGUACAAAGG [salish99-ex1-21] , tested on MS2 coat protein?
0.151

Do the same for GGAACACAUGAGGAUCACCCAUGUCAGGAUAUGUAGAUAAAAAGAAAAUAAAAUAAAAACAGAAGGGACAAAAG [May 3] please
0.0733

Continue with AACAUGUGAGGAUAUGUACGAAAAAAUAAAAAAAUAAAAGUACAGAAGGCACAUGAGGAUCACCCAUGUGAAAA [EX4 395: Minimal 8]
0.271

Continue with AGGGUACAUGAGGAUCACCCAUGUUAGGAUAUUGAAAAGAAAAGAAAAGAAAGAAGAACAAGAAGGGACAAGAA [Userkare]
0.0457

Queued: AAAAAACAUGAGGAUCACCCAUGUCAGGAUAUCCGGUUCUUAAAAAAAAAAAGGCGUUGGAGAAGGGACAUUCC [Chica Displaced 11 - Jieux - Exclusion 1]
0.038

One more sequence: AAAAAGCGAGGAUAUACAUGAGGAUCACCCAUGUCAAAAGAAUAUAAAGAAAUAGGAAGUAGAAGGCGCAAAAA [Ex 3 #3]
0.0564

Check AAAAAGCGAGGAUAUACAUGAGGAUCACCCAUGUGAAAAAAAAAAAAAAAAAAAAAAAGUAGAAGGCGCAAAAA [H20 RNA] too.
0.0392

How about AGUAAACAUGAGGAUCACCCAUGUGAGGAUAUCGAAAAGAAAAGAAAAGAAAGAAGAAUGAGAAGGCACAAGAA [Huni] ?
0.037

AAAGAUGCAGGAUAUACAUGAGGAUCACCCAUGUUAGACCUGAAAAAGGGAAAAGAAAGUAGAAGGGCAUAAUA [Ex 3 May 31] , same question.
0.0115

Also need AAAAUACAUGAGGAUCACCCAUGUGAGGAUAUUAGAAAGGGAAUAAAAUAACCCAAACUAAGAAGGCACAAAAA [Ex 1 May 27] , thanks.
0.0353

Then AAGUAGGUAGGAUAUACAUAGAUACAGAUUCAUGUGGAACUACAUGAGGAUCACCCAUGUAGAAGGACCUAAUA [AJ 40] ?
0.126

Now the same for AAAAAACAUGAGGAUCACCCAUGUAAGGAUAUGCAAAAUAAAAGAAAUAAAAAGGAAAGCAGAAGGUACAUGAA [JL wbt mod 8]
0.0425

Again, but for AACAGUACAGGAUAUACAUGAGGAUCACCCAUGUGACAAUUAAGUGGCGUACCACAGUGUAGAAGGGUACUGGA [Ruby 84]
0.113

# iterate: AUAGGGCUAGGAUAUACAUGAGGAUCACCCAUGUAAACAGAUAGAUCAAGGUAAACGAGUAGAAGGAGCAAUAA [JR_Exc003_Sub210]
0.0188

And the next one, AACUAGCUAGGAUAUACAUGAGGAUCACCCAUGUAAAAAAAAAAAAAAAGAUAUAUAUGUAGAAGGAGCUAGUA [Mod of Brourd] ?
0.0413

Entry AAGGGACAUGAGGAUCACCCAUGUGAGGAUAUGCUAUGGAAAAUAAAAAAUAAACAUAGCAGAAGGCAUAAAAA [Mat - Exclusion 1 - Eli mod - D37] please
0.0723

Now consider ACUUAUGAAGGAUAUACUAACAACAUACACUCAACACACACACAUGAGGAUCACCCAUGUAGAAGGUCAAACAU [JR_Exc002_Sub1205] and answer again.
0.0182

And the next one, AGAAAGUCAGGAUAUGCAGAUAAAAAAACGAAAAAAAAUCUGCAGAAGGGACAUGAGGAUCACCCAUGUAAAGA [Mat - Exclusion 4 - Mayanna - D111] ?
0.0402

What do we get for CCCAUGUCAGGAUAUCAGUAGUAAAAAAAAAAAAUUACUACUGAGAAGGGACAUGAGGAUCACCCAUGUUCAAA [EX4 317: Super Stable 17] ?
0.0283

Also need CCAGGACAUGAGGAUCACCCAUGUGAGGAUAUCUGUAUUCAAUCCUCGGAUUGAAUACAGAGAAGGCACAUGGA [Ex1: 659] , thanks.
0.0268

Let us now turn to AGUCGGCGAGGAUAUACAUGAGGAUCACCCAUGUGAGAGAAUAUAGUGAGUUAGACAAGUAGAAGGCGCUGACA [JL Lego Mod 11]
0.135

Moving on to the next sequence: AAAAAGGGAGGAUAUACAACACAGACAGAACAACAAACACAACAUGAGGAUCACCCAUGUAGAAGGCCCAAAAA [Default title]
0.0354

Also check AAAAAGUGAGGAUAUACGCGAACAAAAAAAAAAAAGAAAGCGUAGAAGGCACAUGAGGAUCACCCAUGUCCAAA [Alfred 64% 4]
0.039

What do you get for AGUUGGCGAGGAUAUACAUGAGGAUCACCCAUGUGAGAGAUAAAAGUGAGAAAGAAAAGUAGAAGGCGCUAACA [JL Lego Mod 20] ?
0.262

What do you get for AAGAAACAUGAGGAUCACCCAUGUCAGGAUAUACAAAAGAAAAGAAAAGAAAGAAGAAGUAGAAGGGACAAAGG [Neitiqerty Siptah] ?
0.0693

Now consider AAGAGGCUAGGAUAUACAUAUCUGAUGACUCAUCCUAAAACACAUGAGGAUCACCCAUGUAGAAGGAGCGAAUG [Anledi] and answer again.
0.0165
